Origin of measurements: patent US7071344B1

Please go through the items and note down their KF.
TARGET ENTITY: UniProt:A3RGC1
Sequence (A3RGC1 whole entry): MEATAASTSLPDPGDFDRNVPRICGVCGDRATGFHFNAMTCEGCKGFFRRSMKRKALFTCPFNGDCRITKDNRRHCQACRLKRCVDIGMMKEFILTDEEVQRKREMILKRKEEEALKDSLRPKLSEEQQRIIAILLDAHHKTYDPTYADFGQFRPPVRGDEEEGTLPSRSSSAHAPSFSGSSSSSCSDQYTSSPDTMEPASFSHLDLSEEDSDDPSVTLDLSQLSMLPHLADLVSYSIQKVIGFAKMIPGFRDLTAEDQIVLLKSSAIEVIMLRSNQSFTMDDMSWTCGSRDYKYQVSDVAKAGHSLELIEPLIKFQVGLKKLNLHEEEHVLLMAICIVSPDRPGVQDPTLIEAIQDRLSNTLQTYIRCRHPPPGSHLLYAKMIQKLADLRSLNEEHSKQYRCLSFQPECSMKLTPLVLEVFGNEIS
PROCEDURE TEXT: calcitriol-receptor test (competition with 3H-calcitriol)
CONDITION LABEL: competition factor = concentration of test substance / concentration of calcitriol at 50% competition; protein extract from intestines of juvenile pigs

Give KF for C=C1C(=CC=C2CCCC3(C)C2CCC3C(C)C=CC(O)C2(CCCC)CC2)CC(O)CC1O (stereo not shown) [Compound 226b] tested on UniProt:A3RGC1.
3

Answer briefly: KF recorded on UniProt:A3RGC1 for C=C1C(=CC=C2CCCC3(C)C2CCC3C(C)C(O)CCCC2(C(=O)CCC)CC2)CC(O)CC1O (stereo not shown)
20

State, for UniProt:A3RGC1, measured KF of the compound listed here: C=C1/C(=C\C=C2/CCC[C@]3(C)[C@@H]([C@H](C)/C=C/CC4(C(C)=O)CC4)CC[C@@H]23)C[C@@H](O)C[C@@H]1O
10

Lab note: UniProt:A3RGC1 assay, enter KF for C=C1/C(=C\C=C2/CCC[C@]3(C)[C@@H]([C@H](C)/C=C/[C@H](O)C4(CC)CC4)CC[C@@H]23)C[C@@H](O)C[C@@H]1O [Compound 214a] here
3

###

PROCEDURE TEXT: metabolic stability in liver homogenate
Format: in vitro ADME
CONDITION LABEL: half-life in the liver homogenate (rat); read-out: T½
MEASUREMENT NAME: half-life
The reply should consist of the numeric value with the unit placed after it.

Please report the measured half-life for C=C1/C(=C\C=C2/CCC[C@]3(C)[C@@H]([C@H](C)/C=C/[C@@H](O)C4CC4)CC[C@@H]23)C[C@@H](O)C[C@@H]1O [calcipotriol, reference compound]
0.667 h

Kindly indicate its recorded half-life. Item: C=C1/C(=C\C=C2/CCC[C@]3(C)[C@@H]([C@H](C)CCCC(C)(C)O)CC[C@@H]23)C[C@@H](O)C[C@@H]1O [calcitriol, 1α,25-dihydroxy vitamin D3, reference compound]
2 h

###

PROCEDURE TEXT: acute hypercalcemic action (serum-calcium) in rats
Assay type: in vivo, rat
CONDITION LABEL: dose ratio test substance/calcitriol for comparable hypercalcemic action; one-time subcutaneous administration, male rats
Please provide measured DR Ca for the entries that follow.
Form field (numeric): enter value without unit.

For the compound C=C1/C(=C\C=C2/CCC[C@]3(C)[C@@H]([C@H](C)CCCC(C)(C)O)CC[C@@H]23)C[C@@H](O)C[C@@H]1O [calcitriol, 1α,25-dihydroxy vitamin D3, reference compound] , give its reported DR Ca.
1

Let me know recorded DR Ca for C=C1/C(=C\C=C2/CCC[C@]3(C)[C@@H]([C@H](C)/C=C/[C@@H](O)C4CC4)CC[C@@H]23)C[C@@H](O)C[C@@H]1O [calcipotriol, reference compound] , thanks.
50

State its DR Ca for this compound: C=C1C(=CC=C2CCCC3(C)C2CCC3C(C)C=CCCC2(C(=O)CCC)CC2)CC(O)CC1O (stereo not drawn)
30

###

PROCEDURE TEXT: acute hypercalcemic action (serum-calcium) in rats
Assay type: in vivo, rat
CONDITION LABEL: dose ratio test substance/calcitriol for comparable hypercalcemic action; one-time subcutaneous administration, male rats
Please respond with reported DR Ca for every item in the list.

Give DR Ca for C=C1/C(=C\C=C2/CCC[C@]3(C)[C@@H]([C@H](C)/C=C/[C@@H](O)C4(CCCCCCC)CC4)CC[C@@H]23)C[C@@H](O)C[C@@H]1O [Compound 236b]
>>30

Return DR Ca (reported value) for this molecule: C=C1/C(=C\C=C2/CCC[C@]3(C)[C@@H]([C@H](C)[C@@H](O)CCCC4(C(C)=O)CC4)CC[C@@H]23)C[C@@H](O)C[C@@H]1O [Compound 127]
>100

Supply DR Ca value. Item: C=C1/C(=C\C=C2/CCC[C@]3(C)[C@@H]([C@H](C)/C=C/CC4(C(=O)CCC)CC4)CC[C@@H]23)C[C@@H](O)C[C@@H]1O [Compound 71]
100

###

Tested on: HL 60 cells
PROCEDURE TEXT: differentiation induction of HL 60 cells to macrophages (NBT reduction)
Format: cell-based, human
CONDITION LABEL: dose ratio test substance/calcitriol for comparable semi-maximum differentiation induction; 96 hours incubation
MEASUREMENT NAME: DR HL 60
Quick one: just the number, no unit, thanks!

// Input: C=C1/C(=C\C=C2/CCC[C@]3(C)[C@@H]([C@H](C)/C=C/CC4(C(C)=O)CC4)CC[C@@H]23)C[C@@H](O)C[C@@H]1O [Compound 66] . Output its DR HL 60 only.
0.5

Please give measured DR HL 60 of the following entry: C=C1/C(=C\C=C2/CCC[C@]3(C)[C@@H]([C@H](C)/C=C/[C@@H](O)C4(CCCCCCC)CC4)CC[C@@H]23)C[C@@H](O)C[C@@H]1O [Compound 236b]
4

Given C=C1C(=CC=C2CCCC3(C)C2CCC3C(C)C=CC(O)C2(CCCC)CC2)CC(O)CC1O (stereo not drawn) [Compound 226b] , respond with its DR HL 60.
0.4

###

PROCEDURE TEXT: acute hypercalcemic action (serum-calcium) in rats
Type: in vivo, rat
CONDITION LABEL: dose ratio test substance/calcitriol for comparable hypercalcemic action; one-time subcutaneous administration, male rats
So I've got a bunch of compounds here, and I need their DR Ca values.

Identify measured DR Ca corresponding to C=C1C(=CC=C2CCCC3(C)C2CCC3C(C)C(O)CCCC2(C(=O)CCC)CC2)CC(O)CC1O (stereo not drawn) [Compound 132]
>100

Please give measured DR Ca of the following entry: C=C1/C(=C\C=C2/CCC[C@]3(C)[C@@H]([C@H](C)/C=C/[C@@H](O)CCC4(C(C)=O)CC4)CC[C@@H]23)C[C@@H](O)C[C@@H]1O [Compound 168b]
>100

State its DR Ca for this compound: C=C1/C(=C\C=C2/CCC[C@]3(C)[C@@H]([C@H](C)/C=C/[C@H](O)C4(CCCC)CC4)CC[C@@H]23)C[C@@H](O)C[C@@H]1O [Compound 226a]
>>1

###

PROCEDURE TEXT: acute hypercalcemic action (serum-calcium) in rats
Assay type: in vivo, rat
CONDITION LABEL: dose ratio test substance/calcitriol for comparable hypercalcemic action; one-time subcutaneous administration, male rats
Please respond with reported DR Ca for every item in the list.

Please report DR Ca for the following compound: C=C1/C(=C\C=C2/CCC[C@]3(C)[C@@H]([C@H](C)/C=C/[C@@H](O)C4(CCCCCC)CC4)CC[C@@H]23)C[C@@H](O)C[C@@H]1O [Compound 231b]
>100

Entry C=C1C(=CC=C2CCCC3(C)C2CCC3C(C)C=CCC2(C(=O)CCCCC)CC2)CC(O)CC1O (stereo not drawn) needs its DR Ca filled in; supply it.
>>300

Return the recorded DR Ca value; entry: C=C1C(=CC=C2CCCC3(C)C2CCC3C(C)C=CC(O)C2(CCCC)CC2)CC(O)CC1O (stereo not drawn) [Compound 226b]
>5
